Species on record: Rattus norvegicus
Assay: […]
Format: ADME, organism-based, Urine
Set-up: dose 30 mg/kg, route oral
Details: in vivo, po, 30 mg/kg
metric.name: Mean urine volume (mL)
Give just the numeric value; mL need not be written.

Reference set (5 entries):
COc1cccc(C(CN(C)C)c2nnc3n2-c2ccc(Cl)cc2C(c2ccccc2)=NC3)c1 (stereo not given) | 12.21
NS(=O)(=O)c1cc(C(=O)O)c(NCc2ccco2)cc1Cl [FUROSEMIDE] | 18.3
CN(C)CCc1nnc2n1-c1ccc(Br)cc1C(c1ccccn1)=NC2 | 8.05
CN(C)CC(c1ccccc1)c1nnc2n1-c1ccc(Br)cc1C(c1ccccc1)=NC2 (stereo not given) | 8.5
NS(=O)(=O)c1cc2c(cc1Cl)NCNS2(=O)=O [HYDROCHLOROTHIAZIDE] | 10.03

### Prompt Look up Mean urine volume for this compound: COc1ccc(C(CN(C)C)c2nnc3n2-c2ccc(Cl)cc2C(c2ccccc2)=NC3)cc1 (stereo not given)
### Response 10.47

### Prompt // repeat for CN(C)CC(c1ccccc1Cl)c1nnc2n1-c1ccc(Cl)cc1C(c1ccccc1)=NC2 (stereo not given) and report
### Response 6.73

### Prompt // repeat for CC1N=C(c2ccccc2)c2cc(Cl)ccc2-n2c1nnc2C(CN(C)C)c1ccccc1 (stereo not given) and report
### Response 9.56

### Prompt // repeat for I.NCC(c1ccccc1)c1nnc2n1-c1ccc(Cl)cc1C(c1ccccc1)=NC2 (stereo not given) and report
### Response 10.47

### Prompt // repeat for `Nc1nc(N)c2nc(-c3ccccc3)c(N)nc2n1` and report
### Response 9.28

### Prompt // repeat for CN(C)CC(c1ccccc1)c1nnc2n1-c1ccc(I)cc1C(c1ccccc1)=NC2 (stereo not given) and report
### Response 12.9

### Prompt // repeat for `CN(C)CCc1nnc2n1-c1ccc(Br)cc1C(c1ccccc1)=NC2` and report
### Response 8.44

### Prompt // repeat for COc1ccccc1C(CN(C)C)c1nnc2n1-c1ccc(Cl)cc1C(c1ccccc1)=NC2 (stereo not given) and report
### Response 5.19

### Prompt // repeat for CSc1ccc2c(c1)C(c1ccccc1)=NCc1nnc(C(CN(C)C)c3ccccc3)n1-2 (stereo not given) and report
### Response 10.39

### Prompt // repeat for CN(C)CC(c1ccccc1)c1nnc2n1-c1ccc(Cl)cc1C(c1ccccc1)=NC2 (stereo not given) and report
### Response 12

----------
Species: Rattus norvegicus
Assay: […]
Type: ADME, organism-based, Urine
Set-up: dose 1 mg/kg, route oral
Details: in vivo, po, 1 mg/kg
As shown below, each of these molecules has a reported Mean urine volume value.
Give just the numeric value; mL need not be written.

Reference set (2 entries):
CN(C)CC(c1ccccc1)c1nnc2n1-c1ccc(I)cc1C(c1ccccc1)=NC2 (stereo not drawn) | 4.8
CN(C)CCc1nnc2n1-c1ccc(Br)cc1C(c1ccccc1)=NC2 | 4.38

# context switch: different molecule, same Mean urine volume
### Prompt Look up Mean urine volume for this molecule: CSc1ccc2c(c1)C(c1ccccc1)=NCc1nnc(C(CN(C)C)c3ccccc3)n1-2 (stereo not drawn)
### Response 5.12

----------
System: Rattus norvegicus
Test: Mean excretion of chloride in conscious rats at a dose of 3.0 mg/kg given orally
Format: ADME, organism-based
Design: dose 3 mg/kg, route oral
Conditions: in vivo, po
As shown below, each of these compounds has a reported Mean excretion of Cl- value.
Give just the numeric value; m equiv need not be written.

Reference set (3 entries):
CN(C)CC(c1ccccc1)c1nnc2n1-c1ccc(Br)cc1C(c1ccccc1)=NC2 (stereo not given) | 0.6
CN(C)CCc1nnc2n1-c1ccc(Br)cc1C(c1ccccc1)=NC2 | 0.82
I.NCC(c1ccccc1)c1nnc2n1-c1ccc(Cl)cc1C(c1ccccc1)=NC2 (stereo not given) | 0.73

### Prompt Look up Mean excretion of Cl- for this compound: COc1cccc(C(CN(C)C)c2nnc3n2-c2ccc(Cl)cc2C(c2ccccc2)=NC3)c1 (stereo not given)
### Response 0.78

### Prompt // repeat for CN(C)CC(c1ccccc1)c1nnc2n1-c1ccc(I)cc1C(c1ccccc1)=NC2 (stereo not given) and report
### Response 0.76

----------
System: Rattus norvegicus
Test: Mean excretion of sodium in conscious rats at a dose of 0.3 mg/kg given orally
Format: ADME, organism-based
Design: dose 0.3 mg/kg, route oral
Details: in vivo, po
metric.name: Mean excretion of Na+ (m equiv)
Give just the numeric value; m equiv need not be written.

### Prompt Look up Mean excretion of Na+ for this compound: CSc1ccc2c(c1)C(c1ccccc1)=NCc1nnc(C(CN(C)C)c3ccccc3)n1-2 (stereo not given)
### Response 0.88

### Prompt // repeat for I.NCC(c1ccccc1)c1nnc2n1-c1ccc(Cl)cc1C(c1ccccc1)=NC2 (stereo not given) and report
### Response 0.77

### Prompt // repeat for `CN(C)CCc1nnc2n1-c1ccc(Br)cc1C(c1ccccc1)=NC2` and report
### Response 0.66

### Prompt // repeat for `CN(C)CCc1nnc2n1-c1ccc(Br)cc1C(c1ccccn1)=NC2` and report
### Response 0.74

### Prompt // repeat for COc1ccccc1C(CN(C)C)c1nnc2n1-c1ccc(Cl)cc1C(c1ccccc1)=NC2 (stereo not given) and report
### Response 0.63

----------
System: Rattus norvegicus
Test: Mean excretion of potassium in conscious rats at a dose of 30 mg/kg given orally
Format: ADME, organism-based
Design: dose 30 mg/kg, route oral
Details: in vivo, po
metric.name: Mean excretion of K+ (m equiv)
Give just the numeric value; m equiv need not be written.

Reference set (2 entries):
CC1N=C(c2ccccc2)c2cc(Cl)ccc2-n2c1nnc2C(CN(C)C)c1ccccc1 (stereo not given) | 0.24
COc1ccccc1C(CN(C)C)c1nnc2n1-c1ccc(Cl)cc1C(c1ccccc1)=NC2 (stereo not given) | 0.23

### Prompt Request: Mean excretion of K+, test system Rattus norvegicus, entry CN(C)CC(c1ccccc1)c1nnc2n1-c1ccc(Cl)cc1C(c1ccccc1)=NC2 (stereo not given)
### Response 0.27

### Prompt // repeat for NS(=O)(=O)c1cc2c(cc1Cl)NCNS2(=O)=O [HYDROCHLOROTHIAZIDE] and report
### Response 0.3

### Prompt // repeat for `Nc1nc(N)c2nc(-c3ccccc3)c(N)nc2n1` and report
### Response 0.04

----------
As shown below, each of these compounds has a reported Mean excretion of K+ value.
Tested on: Rattus norvegicus
Experiment: Mean excretion of potassium in conscious rats at a dose of 1.0 mg/kg given orally
Format: ADME, organism-based
Design: dose 1 mg/kg, route oral
Settings: in vivo, po
Give just the numeric value; m equiv need not be written.

Reference set (5 entries):
CN(C)CC(c1ccccc1)c1nnc2n1-c1ccc(I)cc1C(c1ccccc1)=NC2 (stereo not given) | 0.25
CC1N=C(c2ccccc2)c2cc(Cl)ccc2-n2c1nnc2C(CN(C)C)c1ccccc1 (stereo not given) | 0.19
COc1ccc(C(CN(C)C)c2nnc3n2-c2ccc(Cl)cc2C(c2ccccc2)=NC3)cc1 (stereo not given) | 0.25
NS(=O)(=O)c1cc(C(=O)O)c(NCc2ccco2)cc1Cl [FUROSEMIDE] | 0.21
Nc1nc(N)c2nc(-c3ccccc3)c(N)nc2n1 | 0.1

### Prompt Look up Mean excretion of K+ for this compound: CN(C)CC(c1ccccc1Cl)c1nnc2n1-c1ccc(Cl)cc1C(c1ccccc1)=NC2 (stereo not given)
### Response 0.24

### Prompt // repeat for `CN(C)CCc1nnc2n1-c1ccc(Br)cc1C(c1ccccc1)=NC2` and report
### Response 0.23

### Prompt // repeat for `CN(C)CCc1nnc2n1-c1ccc(Br)cc1C(c1ccccn1)=NC2` and report
### Response 0.32

### Prompt // repeat for COc1ccccc1C(CN(C)C)c1nnc2n1-c1ccc(Cl)cc1C(c1ccccc1)=NC2 (stereo not given) and report
### Response 0.23

### Prompt // repeat for I.NCC(c1ccccc1)c1nnc2n1-c1ccc(Cl)cc1C(c1ccccc1)=NC2 (stereo not given) and report
### Response 0.32

----------
System: Rattus norvegicus
Assay: Mean excretion of sodium in conscious rats at a dose of 100 mg/kg given orally
Type: ADME, organism-based
Set-up: dose 100 mg/kg, route oral
Conditions: in vivo, po
As shown below, each of these compounds has a reported Mean excretion of Na+ value.
Give just the numeric value; m equiv need not be written.

NS(=O)(=O)c1cc2c(cc1Cl)NCNS2(=O)=O [HYDROCHLOROTHIAZIDE] | 1.9
COc1ccccc1C(CN(C)C)c1nnc2n1-c1ccc(Cl)cc1C(c1ccccc1)=NC2 (stereo not given) | 0.6
CSc1ccc2c(c1)C(c1ccccc1)=NCc1nnc(C(CN(C)C)c3ccccc3)n1-2 (stereo not given) | 2.52
CN(C)CC(c1ccccc1Cl)c1nnc2n1-c1ccc(Cl)cc1C(c1ccccc1)=NC2 (stereo not given) | 1.76
COc1cccc(C(CN(C)C)c2nnc3n2-c2ccc(Cl)cc2C(c2ccccc2)=NC3)c1 (stereo not given) | 1.76

### Prompt Look up Mean excretion of Na+ for this compound: `CN(C)CCc1nnc2n1-c1ccc(Br)cc1C(c1ccccn1)=NC2`
### Response 1.26

### Prompt // repeat for CN(C)CC(c1ccccc1)c1nnc2n1-c1ccc(I)cc1C(c1ccccc1)=NC2 (stereo not given) and report
### Response 2.09

### Prompt // repeat for `Nc1nc(N)c2nc(-c3ccccc3)c(N)nc2n1` and report
### Response 0.88
